test system: P12-ICHIKAWA; assay: selective drug sensitivity score (sDSS, relative to normal bone marrow) (sDSS (score)); higher = more potent and effective on the cell line relative to normal bone marrow cells; conditions: 72 h;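 further: ALL cell lines in 384-well plates, five doses spanning 10,000-fold, each plate scaled between vehicle and 100 µmol/L benzalkonium chloride controls, sDSS an adapted area-under-curve metric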
Catalogue of selective drug sensitivity score readings, one per entry.

Query: selective drug sensitivity score; subject: CS(=O)(=O)CCNCc1ccc(-c2ccc3ncnc(Nc4ccc(OCc5cccc(F)c5)c(Cl)c4)c3c2)o1 [Lapatinib] (top concentration 1000 nM) 0

Next up: CN1CCc2c(c3ccccc3n2Cc2ccc(C(=O)NO)cc2)C1 [Tubastatin_A] (top concentration 10000 nM) 0.36

CC#CC(=O)N1CCC[C@H]1c1nc(-c2ccc(C(=O)Nc3ccccn3)cc2)c2c(N)nccn12 [Acalabrutinib] (top concentration 1000 nM) ? -0.1

Same again, this time with NCC(=O)Nc1ccc(-n2nc(C(F)(F)F)cc2-c2ccc3c(ccc4ccccc43)c2)cc1 (top concentration 25000 nM) 16.7

Next:
Using the record for CNC(=O)c1ccc(-c2cnc3ncc(Cc4ccc5ncccc5c4)n3n2)cc1F [Capmatinib] (top concentration 1000 nM) , report its selective drug sensitivity score. -0.06
